Log k reference
- Protocol description: Lipophilicity determination by HPLC (capacity factor k / log k)
- Type: physicochemical
- Condition details: RP-HPLC, C18, MeOH 55%/H2O 45%
- Protocol: A Waters Alliance 2695 XE HPLC separation module and a Waters Photodiode Array Detector 2996 (Waters Corp., Milford, MA, USA) were used. A Symmetry C18 5 μm, 4.6 × 250 mm, part number WAT054275 (Waters Corp., Milford, MA, USA) chromatographic column was used. The HPLC separation process was monitored by Empower 2 Chromatography Data Software, Waters 2009 (Waters Corp., Milford, MA, USA). A mixture of MeOH p.a. […] Retention times (t R) were measured in minutes. […]
API doc: respond with a numeric literal and nothing else, no unit.

Before answering, review these 8 worked examples.
CCCOC(=O)Nc1ccc(C(=O)OCC(O)CNCCOc2c(OC)cccc2OC)cc1.Cl (centres unmarked) [Compound 21c]    0.4052
CCCCOC(=O)Nc1ccc(C(=O)OCC(O)CNCCOc2ccc(OC)cc2)cc1.Cl (centres unmarked) [Compound 20d]    0.4241
CCOC(=O)Nc1ccc(C(=O)OCC(O)CNCCOc2ccccc2OC)cc1.Cl (centres unmarked) [Compound 19b]    0.3976
COC(=O)Nc1ccc(C(=O)OCC(O)CNCCOc2ccccc2F)cc1.Cl (centres unmarked) [Compound 22a]    0.3904
CCOC(=O)Nc1ccc(C(=O)OCC(O)CNCCOc2ccc(OC)cc2)cc1.Cl (centres unmarked) [Compound 20b]    0.3999
COC(=O)Nc1ccc(C(=O)OCC(O)CNCCOc2ccccc2OC)cc1.Cl (centres unmarked) [Compound 19a]    0.3870
CCCCOC(=O)Nc1ccc(C(=O)OCC(O)CNCCOc2ccc(F)cc2)cc1.Cl (centres unmarked) [Compound 23d]    0.4365
CCCCOC(=O)Nc1ccc(C(=O)OCC(O)CNCCOc2ccccc2F)cc1.Cl (centres unmarked) [Compound 22d]    0.4341

Okay, now this molecule:
Task: I am curious: what Log k value has been reported for COC(=O)Nc1ccc(C(=O)OCC(O)CNCCOc2ccc(F)cc2)cc1.Cl (centres unmarked) [Compound 23a] ?
Result: 0.3915
